System: Human immunodeficiency virus 1
Experiment: Antiviral activity against HIV1 DRVR P51 infected in human MT4 cells incubated for 7 days by fully automated chemiluminescent enzyme immunoassay
Type: functional, organism-based
Conditions: Human immunodeficiency virus 1, DRVR P51, MT4, 168 h
MEASURE: IC50

Example results:
[
  {
    "COMPOUND": "COc1ccc(S(=O)(=O)N(CC(C)C)C[C@@H](O)[C@H](Cc2ccccc2)NC(=O)C[C@H]2C3CO[C@H]4OC[C@@H]2C4C3)cc1 (stereo partly specified)",
    "MEASURE": "IC50",
    "RESULT_VALUE": "> 1000 nM"
  },
  {
    "COMPOUND": "CC(C)CN(C[C@@H](O)[C@H](Cc1ccccc1)NC(=O)O[C@H]1CO[C@H]2OCC[C@H]21)S(=O)(=O)c1ccc(N)cc1",
    "MEASURE": "IC50",
    "RESULT_VALUE": "> 1000 nM"
  },
  {
    "COMPOUND": "COC(=O)N[C@H](C(=O)N[C@@H](Cc1ccccc1)[C@@H](O)CN(Cc1ccc(-c2ccccn2)cc1)NC(=O)[C@@H](NC(=O)OC)C(C)(C)C)C(C)(C)C [ATAZANAVIR]",
    "MEASURE": "IC50",
    "RESULT_VALUE": "> 1000 nM"
  },
  {
    "COMPOUND": "Cc1cccc(C)c1OCC(=O)N[C@@H](Cc1ccccc1)[C@@H](O)C[C@H](Cc1ccccc1)NC(=O)[C@H](C(C)C)N1CCCNC1=O [LOPINAVIR]",
    "MEASURE": "IC50",
    "RESULT_VALUE": "> 1000 nM"
  },
  {
    "COMPOUND": "CC(C)CN(C[C@@H](O)[C@H](Cc1cc(F)cc(F)c1)NC(=O)O[C@H]1C2CO[C@H]3OC[C@@H]1C3C2)S(=O)(=O)c1ccc2nc(NC3CC3)sc2c1 (stereo partly specified)",
    "MEASURE": "IC50",
    "RESULT_VALUE": "5 nM"
  }
]

**Query** Please tell me: IC50 of CC(C)CN(C[C@@H](O)C(Cc1cc(F)cc(F)c1)NC(=O)C[C@H]1C2CO[C@H]3OC[C@@H]1C3C2)S(=O)(=O)c1ccc2nc(NC3CC3)sc2c1 (single isomer, unassigned) , system Human immunodeficiency virus 1?
**Result** 14 nM
